test_system: Serine protease hepsin (Homo sapiens)
Sequence (P05981 1-162 limits assumed): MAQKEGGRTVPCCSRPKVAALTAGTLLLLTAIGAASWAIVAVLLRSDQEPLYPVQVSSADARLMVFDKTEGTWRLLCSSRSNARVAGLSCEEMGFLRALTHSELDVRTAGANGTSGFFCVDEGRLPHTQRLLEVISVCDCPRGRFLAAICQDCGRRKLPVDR
Sequence (P05981 163-417 limits assumed): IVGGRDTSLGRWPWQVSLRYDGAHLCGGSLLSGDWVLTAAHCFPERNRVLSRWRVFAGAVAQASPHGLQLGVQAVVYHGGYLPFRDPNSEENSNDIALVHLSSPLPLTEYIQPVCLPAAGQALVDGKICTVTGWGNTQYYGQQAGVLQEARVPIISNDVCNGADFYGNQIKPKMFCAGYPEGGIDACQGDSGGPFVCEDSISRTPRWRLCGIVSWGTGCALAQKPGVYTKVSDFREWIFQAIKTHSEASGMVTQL
assay_comment: Inhibition of recombinant human C-terminal 10-His tagged hepsin (Arg45 to Leu417) expressed in mouse myeloma cells using Boc-QAR-AMC as substrate preincubated for 30 mins followed by substrate addition by fluorescence based assay
Please go through the items and note down their IC50.
One number for each entry, in nM.

Use these answered entries as a reference point.
compound: CC1CN(CC2CCN(Cc3ccccc3)CC2)C(=O)N(c2cccc(C(=N)N)c2)C1 (centres undefined)
test_system: Serine protease hepsin (Homo sapiens)
IC50 (nM): 1900

compound: CC(C)c1cc(C(C)C)c(S(=O)(=O)N[C@@H](Cc2cccc(C(=N)N)c2)C(=O)N2CCN(C(=O)C3CCNCC3)CC2)c(C(C)C)c1
test_system: Serine protease hepsin (Homo sapiens)
IC50 (nM): 14000

compound: N=C(N)c1cccc(C[C@H](NS(=O)(=O)c2ccc3ccccc3c2)C(=O)N2CCN(C(=O)NCc3ccc(Br)cc3)CC2)c1
test_system: Serine protease hepsin (Homo sapiens)
IC50 (nM): 90

Report IC50 for CC(C)C[C@H](NC(=O)OC1(Cc2ccccc2)CCNCC1)C(=O)N[C@@H](CCCNC(=N)N)C(=O)c1nc2ccccc2s1 please. 0.6
